pIC50 by entry:
test: Inhibition of mitochondrial Monoamine oxidase-B purified from bovine liver
Just so you know, pIC50 here is -log10 of the concentration in molar units; reply with that number alone.

In the examples that follow, each entry is paired with its recorded pIC50.
- cpd_smiles: "NCCNC(=O)c1cccc([N+](=O)[O-])c1"
  pIC50: 7.22
- cpd_smiles: "NCCNC(=O)c1cccc(I)c1"
  pIC50: 7.43
- cpd_smiles: "NCCNC(=O)c1cccc(F)c1"
  pIC50: 6.70

## Task Which pIC50 value belongs to "NCCNC(=O)c1ccc(F)cc1" ?
## Result 7.25

## Task Next molecule up: "NCCNC(=O)c1ccccc1F"
## Result 6.80

## Task Next molecule up: "NCCNC(=O)c1ccc([N+](=O)[O-])cc1"
## Result 4.32

## Task Next molecule up: "NCCNC(=O)c1ccc(Br)cc1"
## Result 7.38

## Task Next molecule up: "NCCNC(=O)c1ccccc1Br"
## Result 5.92
